# Test system: BACIL PUMILUS
# experiment summary: Inhibiting minimum concentration (I.M.C.), activity relative to trimethoprime, MULLER HINTON BACIL PUMILUS MEDIUM
# Type: cell-based
# setup conditions: ratio to trimethoprime, corrected by molecular weight
Label yes (1) for high-side % activity with respect to the base corrected by molecular weight (at or above 30%) and no (0) for low-side % activity with respect to the base corrected by molecular weight (below it).

Hi team, for CCOc1cc(C(Nc2ncc(Cc3cc(OC)c(OC)c(OC)c3)c(N)n2)S(=O)(=O)O)ccc1O (stereo not drawn) [Example 24d] , is the recorded % activity with respect to the base corrected by molecular weight at or above 30%? yes (1)

Hi team, for COc1cc(Cc2cnc(NC(C)S(=O)(=O)O)nc2N)cc(OC)c1OC (stereo not drawn) , is the recorded % activity with respect to the base corrected by molecular weight at or above 30%? no (0)

Hi team, for COc1cc(Cc2cnc(NC(C(C)C)S(=O)(=O)O)nc2N)cc(OC)c1OC (stereo not drawn) , is the recorded % activity with respect to the base corrected by molecular weight at or above 30%? no (0)

Hi team, for COc1cc(Cc2cnc(NC(c3ccccc3O)S(=O)(=O)O)nc2N)cc(OC)c1OC (stereo not drawn) [Example 25f] , is the recorded % activity with respect to the base corrected by molecular weight at or above 30%? yes (1)

Hi team, for COc1cc(C(Nc2ncc(Cc3cc(OC)c(OC)c(OC)c3)c(N)n2)S(=O)(=O)O)ccc1O (stereo not drawn) , is the recorded % activity with respect to the base corrected by molecular weight at or above 30%? yes (1)

Hi team, for COc1ccccc1C(Nc1ncc(Cc2cc(OC)c(OC)c(OC)c2)c(N)n1)S(=O)(=O)O (stereo not drawn) , is the recorded % activity with respect to the base corrected by molecular weight at or above 30%? yes (1)

Hi team, for CCC(C)C(C)C(Nc1ncc(Cc2cc(OC)c(OC)c(OC)c2)c(N)n1)S(=O)(=O)O (stereo not drawn) , is the recorded % activity with respect to the base corrected by molecular weight at or above 30%? no (0)

Hi team, for COc1cc(Cc2cnc(NC(c3cccs3)S(=O)(=O)O)nc2N)cc(OC)c1OC (stereo not drawn) , is the recorded % activity with respect to the base corrected by molecular weight at or above 30%? yes (1)

Hi team, for COc1cc(Cc2cnc(NC(c3ccccc3[N+](=O)[O-])S(=O)(=O)O)nc2N)cc(OC)c1OC (stereo not drawn) , is the recorded % activity with respect to the base corrected by molecular weight at or above 30%? no (0)

Hi team, for COc1cc(Cc2cnc(NC(c3ccco3)S(=O)(=O)O)nc2N)cc(OC)c1OC (stereo not drawn) , is the recorded % activity with respect to the base corrected by molecular weight at or above 30%? yes (1)

Hi team, for COc1cc(Cc2cnc(NC(c3cccc([N+](=O)[O-])c3)S(=O)(=O)O)nc2N)cc(OC)c1OC (stereo not drawn) , is the recorded % activity with respect to the base corrected by molecular weight at or above 30%? yes (1)

Hi team, for COc1cc(Cc2cnc(NC(c3cc(OC)c(OC)c(OC)c3)S(=O)(=O)O)nc2N)cc(OC)c1OC (stereo not drawn) , is the recorded % activity with respect to the base corrected by molecular weight at or above 30%? yes (1)

Hi team, for COc1cc(Cc2cnc(NC(c3ccccc3O)S(=O)(=O)O)nc2N)cc(OC)c1OC (stereo not drawn) [Example 25e] , is the recorded % activity with respect to the base corrected by molecular weight at or above 30%? yes (1)

Hi team, for COc1cc(Cc2cnc(NC(c3ccc(Cl)cc3)S(=O)(=O)O)nc2N)cc(OC)c1OC (stereo not drawn) , is the recorded % activity with respect to the base corrected by molecular weight at or above 30%? yes (1)

Hi team, for CCCC(Nc1ncc(Cc2cc(OC)c(OC)c(OC)c2)c(N)n1)S(=O)(=O)O (stereo not drawn) , is the recorded % activity with respect to the base corrected by molecular weight at or above 30%? no (0)

Hi team, for COc1cc(Cc2cnc(NC(c3ccc4c(c3)OCO4)S(=O)(=O)O)nc2N)cc(OC)c1OC (stereo not drawn) , is the recorded % activity with respect to the base corrected by molecular weight at or above 30%? yes (1)

Hi team, for COc1cc(Cc2cnc(NC(c3ccc([N+](=O)[O-])cc3)S(=O)(=O)O)nc2N)cc(OC)c1OC (stereo not drawn) , is the recorded % activity with respect to the base corrected by molecular weight at or above 30%? no (0)

Hi team, for CCOc1cc(C(Nc2ncc(Cc3cc(OC)c(OC)c(OC)c3)c(N)n2)S(=O)(=O)O)ccc1O (stereo not drawn) [Example 24e] , is the recorded % activity with respect to the base corrected by molecular weight at or above 30%? yes (1)

Hi team, for COc1cc(Cc2cnc(NC(c3ccccc3Cl)S(=O)(=O)O)nc2N)cc(OC)c1OC (stereo not drawn) , is the recorded % activity with respect to the base corrected by molecular weight at or above 30%? no (0)

Hi team, for COc1cc(Cc2cnc(NC(c3cccc(Cl)c3)S(=O)(=O)O)nc2N)cc(OC)c1OC (stereo not drawn) , is the recorded % activity with respect to the base corrected by molecular weight at or above 30%? no (0)

Hi team, for COc1cccc(C(Nc2ncc(Cc3cc(OC)c(OC)c(OC)c3)c(N)n2)S(=O)(=O)O)c1 (stereo not drawn) , is the recorded % activity with respect to the base corrected by molecular weight at or above 30%? no (0)

Hi team, for COc1cc(Cc2cnc(NC(c3ccccc3)S(=O)(=O)O)nc2N)cc(OC)c1OC (stereo not drawn) , is the recorded % activity with respect to the base corrected by molecular weight at or above 30%? no (0)

Hi team, for CCOc1cc(C(Nc2ncc(Cc3cc(OC)c(OC)c(OC)c3)c(N)n2)S(=O)(=O)O)ccc1O (stereo not drawn) [Example 24b] , is the recorded % activity with respect to the base corrected by molecular weight at or above 30%? yes (1)

Hi team, for CCOc1cc(C(Nc2ncc(Cc3cc(OC)c(OC)c(OC)c3)c(N)n2)S(=O)(=O)O)ccc1O (stereo not drawn) [Example 24f] , is the recorded % activity with respect to the base corrected by molecular weight at or above 30%? yes (1)

Hi team, for CCC(CC)C(Nc1ncc(Cc2cc(OC)c(OC)c(OC)c2)c(N)n1)S(=O)(=O)O (stereo not drawn) , is the recorded % activity with respect to the base corrected by molecular weight at or above 30%? no (0)

Hi team, for COc1cc(Cc2cnc(NC(c3ccccc3O)S(=O)(=O)O)nc2N)cc(OC)c1OC (stereo not drawn) [Example 25d] , is the recorded % activity with respect to the base corrected by molecular weight at or above 30%? yes (1)

* * *

# experiment summary: in vivo
# setup conditions: mouse, iv, read-out: LD 50 I.V.
reported metric: LD50 (mg/kg)
State just the number; it will be interpreted in mg/kg.

Return reported LD50; argument: COc1cc(Cc2cnc(NC(c3ccco3)S(=O)(=O)O)nc2N)cc(OC)c1OC (stereo not drawn) 900

Return reported LD50; argument: CCOc1cc(C(Nc2ncc(Cc3cc(OC)c(OC)c(OC)c3)c(N)n2)S(=O)(=O)O)ccc1O (stereo not drawn) [Example 24f] 1000

Return reported LD50; argument: COc1ccccc1C(Nc1ncc(Cc2cc(OC)c(OC)c(OC)c2)c(N)n1)S(=O)(=O)O (stereo not drawn) 1000

* * *

# System: COLI
# experiment summary: Inhibiting minimum concentration (I.M.C.), activity relative to trimethoprime, MULLER HINTON COLI MEDIUM 4
# Type: cell-based
# setup conditions: ratio to trimethoprime, corrected by molecular weight
Answer each item with its documented % activity to the base corrected by molecular weight.

Return reported % activity to the base corrected by molecular weight; argument: COc1cc(Cc2cnc(NC(c3ccccc3[N+](=O)[O-])S(=O)(=O)O)nc2N)cc(OC)c1OC (stereo not shown) 25%

Return reported % activity to the base corrected by molecular weight; argument: CCC(C)C(C)C(Nc1ncc(Cc2cc(OC)c(OC)c(OC)c2)c(N)n1)S(=O)(=O)O (stereo not shown) 27%

Return reported % activity to the base corrected by molecular weight; argument: COc1cc(Cc2cnc(NC(C)S(=O)(=O)O)nc2N)cc(OC)c1OC (stereo not shown) 6.2%

Return reported % activity to the base corrected by molecular weight; argument: COc1ccccc1C(Nc1ncc(Cc2cc(OC)c(OC)c(OC)c2)c(N)n1)S(=O)(=O)O (stereo not shown) 73%

* * *

# Test system: COLI
# experiment summary: Inhibiting minimum concentration (I.M.C.), activity relative to trimethoprime, MULLER HINTON COLI MEDIUM 4
# Type: cell-based
# setup conditions: ratio to trimethoprime, corrected by molecular weight
Label yes (1) for high-side % activity to the base corrected by molecular weight (at or above 80%) and no (0) for low-side % activity to the base corrected by molecular weight (below it).

Hi team, for COc1cc(Cc2cnc(NC(c3ccccc3O)S(=O)(=O)O)nc2N)cc(OC)c1OC (centres unmarked) [Example 25e] , is the recorded % activity to the base corrected by molecular weight at or above 80%? yes (1)

Hi team, for COc1cc(Cc2cnc(NC(c3ccc(Cl)cc3)S(=O)(=O)O)nc2N)cc(OC)c1OC (centres unmarked) , is the recorded % activity to the base corrected by molecular weight at or above 80%? no (0)

Hi team, for CCOc1cc(C(Nc2ncc(Cc3cc(OC)c(OC)c(OC)c3)c(N)n2)S(=O)(=O)O)ccc1O (centres unmarked) [Example 24d] , is the recorded % activity to the base corrected by molecular weight at or above 80%? no (0)

Hi team, for CCC(CC)C(Nc1ncc(Cc2cc(OC)c(OC)c(OC)c2)c(N)n1)S(=O)(=O)O (centres unmarked) , is the recorded % activity to the base corrected by molecular weight at or above 80%? no (0)

Hi team, for CCOc1cc(C(Nc2ncc(Cc3cc(OC)c(OC)c(OC)c3)c(N)n2)S(=O)(=O)O)ccc1O (centres unmarked) [Example 24e] , is the recorded % activity to the base corrected by molecular weight at or above 80%? yes (1)

Hi team, for CCOc1cc(C(Nc2ncc(Cc3cc(OC)c(OC)c(OC)c3)c(N)n2)S(=O)(=O)O)ccc1O (centres unmarked) [Example 24b] , is the recorded % activity to the base corrected by molecular weight at or above 80%? yes (1)

Hi team, for COc1cc(Cc2cnc(NC(c3ccc([N+](=O)[O-])cc3)S(=O)(=O)O)nc2N)cc(OC)c1OC (centres unmarked) , is the recorded % activity to the base corrected by molecular weight at or above 80%? no (0)
